Entry source: PubChem BioAssay (NCI)

Kindly supply the reported TGI values for the records listed here.
Test system: RXF 393 renal
assay-explanation: NCI tumour cell line growth inhibition, 48 h

Some entries whose results are on file:
[[record]]
molecule = "Cc1c2ccccc2c(C)n2c1nc1cc(Cl)c(Cl)cc12"
measured_result = "> 100 µM"

[[record]]
molecule = "Cc1cc2nc(-c3ccc(O)c(O)c3)n(Cc3ccc(O)c(O)c3)c2cc1C"
measured_result = "> 100 µM"

[[record]]
molecule = "O=[N+]([O-])c1ccc(Nc2cccc3c2[nH]c2c(-c4ccccc4)nccc23)c([N+](=O)[O-])c1"
measured_result = "> 100 µM"

[[record]]
molecule = "N=C(N)c1ccc(-c2ccc(-c3ccc(Cl)cc3Cl)s2)nc1"
measured_result = "3.06 µM"

[[record]]
molecule = "C[C@H]1CCC2C(OC(=O)[C@@H]2CN(C)C)[C@]2(C)C(=O)C=CC12O (stereo partly specified)"
measured_result = "4.72 µM"

[[record]]
molecule = "CC1=NN2CCC(=O)N=C2S1"
measured_result = "> 100 µM"


For each of the molecules below, note its TGI.
1. COc1ccc(S(=O)(=O)Nc2cc(Sc3cccc4cccnc34)c(O)c3ccccc23)cc1
2. COC(=O)C#CC(N)=O
3. CC(C)=CCC[C@@H](C)C1=C(O)C(Nc2ccccc2)=C(C)C(=O)C1=O
4. Cc1ccc2c(c1)Nc1ccccc1P2(=O)O
5. Cc1cn2cc(-c3ccc4c(c3)CC(=O)N4)nc2s1

["6.33 µM", "> 100 µM", "60.7 µM", "> 100 µM", "> 100 µM"]

====

Tested on: SF-268 CNS
assay-explanation: NCI tumour cell line growth inhibition, 48 h
Kindly supply the reported TGI values for the records listed here.

[[record]]
molecule = "C=C(CN1CCN(c2ccc(F)c(Cl)c2)CC1)c1ccc(C(=O)Nc2ccccc2N)cc1"
measured_result = "> 100 µM"

[[record]]
molecule = "COc1ccc(C2NC(N)=C(C#N)C3=C2C(C)CCC3)cc1OC (configuration not stated)"
measured_result = "> 100 µM"

[[record]]
molecule = "C=C(Cl)CN1c2ccccc2C=Cc2ccccc21"
measured_result = "> 100 µM"


For each of the molecules below, note its TGI.
1. CSc1c(C)n([O-])c2cc(Cl)c(Cl)cc2[n+]1=O
2. CNc1nc(-c2ccc3c(N)n[nH]c3c2)cc(N2C[C@@H](C(=O)NC3CCCCC3)CC[C@H]2C)n1
3. COc1cc(-c2nc(SC)nc3c2CCc2ccccc2-3)cc(OC)c1OC
4. COc1ccc(/C=C2\OC(=O)C(Cl)=C2c2ccc(OC)c(Cl)c2)cc1
5. CC1=NN2CCC(=O)N=C2S1
6. CC1/C(=N/O)CC(c2ccccc2)N(N=O)C1c1ccccc1 (configuration not stated)

1: 36.6 µM; 2: 19 µM; 3: > 100 µM; 4: 44.3 µM; 5: > 100 µM; 6: > 100 µM

====

Tested on: UACC-257 melanoma
assay-explanation: NCI tumour cell line growth inhibition, 48 h
assay-metric: TGI

Some entries whose results are on file:
[[record]]
molecule = "CCCCCCCCCCOc1ccc(N=Nc2nnc(-c3ccc(OCCCCC)cc3)s2)cc1"
measured_result = "> 100 µM"

[[record]]
molecule = "COc1ccc(/C=C(/c2ccc(OC)cc2)c2c(Cl)cc(Cl)c(/C(=C\\c3ccc(OC)cc3)c3ccc(OC)cc3)c2N=Nc2ccccc2)cc1"
measured_result = "> 100 µM"


For each of the molecules below, note its TGI.
1. C=Cc1cc(OC)c2c(c1)c(=O)oc1c2cc(OC)c2c(O)ccc(C3OC(C(C)O)C(O)C3O)c21 (stereo unspecified)
2. CC/C(C)=C1\CCC(CN(C)C)C1=O (stereo unspecified)
3. O=NNc1c[nH]c(=O)[nH]c1=O
4. CCOC(=O)CN1C(=O)C(=O)N(c2ccc(OC)c3ccccc23)C1=O
5. CC(C)OP(=O)(OC(C)C)/C(C#N)=C/c1c[nH]c2ccccc12
6. O=C(/C=C/c1ccc(Cl)cc1Cl)c1ccc(Cl)cc1Cl
7. CC1(C2CCC3(C)C(C2)C3Sc2ccccc2)OCCO1 (stereo unspecified)
8. C=CCCC(=O)CC(=O)OCc1ccccc1

1. 0.0805 µM
2. 31.4 µM
3. > 100 µM
4. > 100 µM
5. > 100 µM
6. 55.3 µM
7. 41.5 µM
8. > 100 µM

For each of the molecules below, note its TGI.
1. O=C1c2cc3ncsc3cc2C(=O)c2c(O)ccc(O)c21
2. Cc1ccc([N+]2=NC(c3ccccc3)=NN(c3ccccc3)C2)cc1
3. CC(C)c1cc(C(C)C)c(B(c2ccccc2)c2ccccc2)c(C(C)C)c1B(c1ccccc1)c1ccccc1
4. COC(=O)Nc1nc2ccc(C(=O)c3cccs3)cc2[nH]1
5. O=c1onc(Nc2ccccc2)n1-c1ccccc1
6. O=C1Nc2ccccc2SC1=C(C(=O)c1ccccc1)C(=O)c1ccccc1
7. Cc1cc(S(=O)(=O)Nc2n[nH]c(Nc3ccccc3)n2)c(SSc2cc(Cl)c(C)cc2S(=O)(=O)Nc2n[nH]c(Nc3ccccc3)n2)cc1Cl
8. CC(C)(CO)CNc1cc(Cl)nc(N)n1

1: > 100 µM; 2: > 100 µM; 3: > 100 µM; 4: > 100 µM; 5: > 100 µM; 6: > 88 µM; 7: > 100 µM; 8: > 100 µM

For each of the molecules below, note its TGI.
1. COc1cc2nc(-c3cccs3)nc(N3C(c4cc(OC)c(OC)c(OC)c4)=NNC(=O)c4ccccc43)c2cc1OC
2. COc1cc2c(=O)n(CC3CCCCC3)c3c4cc[nH]c4ncc3c2cc1OC
3. C/C(=N\Nc1n[nH]c(=S)n1N)c1c(O)cc(C)oc1=O

["> 100 µM", "> 50 µM", "> 100 µM"]

====

Kindly supply the reported TGI values for the records listed here.
Tested on: MOLT-4 leukemia
assay-explanation: NCI tumour cell line growth inhibition, 48 h

For each of the compounds below, note its TGI.
1. COc1ccc(C2=Nc3c(nc(SC)[nH]c3=O)NC(c3ccccc3)C2)cc1 (centres undefined)
2. CC(C)(CO)CNc1cc(Cl)nc(N)n1
3. COc1cccc(N(CN2C(=O)CCC2OC)C(C)=O)c1 (centres undefined)
4. CCCCOP1(=O)CC(C)=C(Cl)C(C)(OC)C1 (centres undefined)

1. 57.1 µM
2. > 100 µM
3. > 100 µM
4. > 100 µM

For each of the compounds below, note its TGI.
1. C#C[C@@H](CCCC)OC(=O)N[C@H](C)c1ccccc1
2. CNc1nc(-c2ccc3c(N)n[nH]c3c2)cc(N2C[C@@H](C(=O)NC3CCCCC3)CC[C@H]2C)n1

1: > 100 µM; 2: > 32.5 µM

For each of the compounds below, note its TGI.
1. O=C1C(OC(=O)c2ccccc2)=C(c2ccc(O)cc2)C(=O)C(OC(=O)c2ccccc2)=C1c1ccc(O)cc1
2. O=S(=O)(O)c1cc(N=[N+]([O-])c2ccc(N=Nc3ccccc3)cc2S(=O)(=O)O)ccc1/C=C/c1ccc(N=[N+]([O-])c2ccc(N=Nc3ccccc3)cc2S(=O)(=O)O)cc1S(=O)(=O)O
3. O=[N+]([O-])c1ccc(Nc2cccc3c2[nH]c2c(-c4ccccc4)nccc23)c([N+](=O)[O-])c1

> 100 µM
> 100 µM
> 100 µM

====

System: HOP-62 NSCLC
assay-explanation: NCI tumour cell line growth inhibition, 48 h
Kindly supply the reported TGI values for the records listed here.

Some entries whose results are on file:
[[record]]
compound = "CC(=O)c1c(O)cc(O)c(-c2c(C)cc(O)c3c2C(=O)c2cccc(O)c2C3=O)c1O"
measured_result = "40.5 µM"

[[record]]
compound = "Cc1cc(OCc2nnc3n2N=C(c2cc(F)c(Cl)cc2Cl)/C(=C/c2ccc(-c4ccc(Cl)cc4)o2)S3)ccc1Cl"
measured_result = "> 50 µM"

[[record]]
compound = "CC/C(C)=C1\\CCC(CN(C)C)C1=O (stereo not given)"
measured_result = "> 100 µM"

[[record]]
compound = "Cc1ccc(C)c(NC(=O)C(=O)Nn2c(=S)[nH]c3ccccc3c2=O)c1"
measured_result = "> 100 µM"

[[record]]
compound = "NC1=Nc2ccccc2Sc2ccccc21"
measured_result = "> 100 µM"


For each of the compounds below, note its TGI.
1. COc1ccc(F)cc1-c1ccnc2[nH]c(C3=CCN(C4CCC(CC(=O)O)CC4)CC3)cc12 (stereo not given)
2. O=C(/C=C/c1ccc(Cl)cc1Cl)c1ccc(Cl)cc1Cl
3. CC1=NN2CCC(=O)N=C2S1
4. Cc1nc(-n2nc(-c3ccccc3)cc2-c2ccccc2)sc1C(=O)/C=C/c1cccc([N+](=O)[O-])c1
5. CCOC(=O)Cc1cc(=O)[nH]c(-n2[nH]c(C)c(CCO)c2=O)n1

1: > 100 µM; 2: > 68.9 µM; 3: > 100 µM; 4: 38.1 µM; 5: > 100 µM
